These data points were gathered from ChEMBL document CHEMBL5625209.

Listed below: pEC50 values for each entry.
- Tested on: Influenza B virus
- method: Antiviral activity against influenza B virus B/Yamagata/16/88 infected in MDCK cells
- Assay type: functional, organism-based
- condition description: B/Yamagata/16/88, MDCK
Note: pEC50 values are expressed as the negative base-10 logarithm of concentration in M.

Example molecules with recorded pEC50:
CC(C)(C)c1ccc(C(=O)NC(=S)Nc2ccc(N)cc2)cc1; 5.72
CC(C)(C)c1ccc(C(=O)NC(=S)Nc2ccc(NC(=O)c3ccc(C(C)(C)C)cc3)cc2)cc1; 7.30
CC(C)(C)c1ccc(C(=O)NC(=S)Nc2ccc(O)cc2)cc1; 5.40
CCC(=O)Nc1ccc(NC(=S)NC(=O)c2ccc(C(C)(C)C)cc2)cc1; 5.60
Cc1ccc(NC(=S)NC(=O)c2ccc(C(C)(C)C)cc2)c(Br)c1; 5.49
COc1ccc(C(=O)Nc2ccc(NC(=S)NC(=O)c3ccc(C(C)(C)C)cc3)cc2)cc1; 6.52
CC(C)(C)c1ccc(C(=O)NC(=S)Nc2ccc(NC(=O)c3ccccc3)cc2)cc1; 6.15

Exam item: Report the value of pEC50 obtained on Influenza B virus for `CC(C)(C)c1ccc(C(=O)NC(=S)Nc2ccc(NC(=O)c3ccc(Cl)cc3)cc2)cc1` .
Marked response: 6.52
